Reference source: ChEMBL document CHEMBL1961873

target: Ribosomal protein S6 kinase alpha-3 (Homo sapiens) (UniProt P51812); conditions: at 0.1 µM;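 also: reported value is a mean inhibition figure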
Sequence (P51812 whole entry): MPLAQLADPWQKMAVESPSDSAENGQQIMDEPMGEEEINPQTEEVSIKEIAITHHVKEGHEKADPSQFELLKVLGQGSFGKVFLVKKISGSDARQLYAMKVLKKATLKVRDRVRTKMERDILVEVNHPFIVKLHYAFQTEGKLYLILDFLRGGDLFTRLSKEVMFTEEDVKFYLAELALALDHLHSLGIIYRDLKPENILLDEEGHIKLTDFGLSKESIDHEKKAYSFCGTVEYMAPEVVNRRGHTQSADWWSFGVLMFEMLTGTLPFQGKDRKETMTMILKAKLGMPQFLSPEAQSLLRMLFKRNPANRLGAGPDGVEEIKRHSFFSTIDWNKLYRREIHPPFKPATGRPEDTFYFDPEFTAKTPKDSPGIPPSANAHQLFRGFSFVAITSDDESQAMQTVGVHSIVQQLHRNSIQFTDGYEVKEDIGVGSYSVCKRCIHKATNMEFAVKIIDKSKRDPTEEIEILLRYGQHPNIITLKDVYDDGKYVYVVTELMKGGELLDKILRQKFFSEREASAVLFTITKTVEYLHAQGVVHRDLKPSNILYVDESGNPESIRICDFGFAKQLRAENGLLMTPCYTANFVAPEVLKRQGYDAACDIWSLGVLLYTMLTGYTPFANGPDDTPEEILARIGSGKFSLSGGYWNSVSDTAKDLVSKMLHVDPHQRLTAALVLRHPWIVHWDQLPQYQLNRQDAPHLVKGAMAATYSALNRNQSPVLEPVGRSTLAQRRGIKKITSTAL

smiles repr | inhibition / %
NS(=O)(=O)c1ccc(N/N=C2\C(=O)Nc3ccc(-c4cnco4)cc32)cc1 | -1
O=C(Nc1n[nH]c2cc(-c3ccccc3)ccc12)C1CC1 | 1.2
O=C(NCC1CC1)c1ccc(-c2cccc(C(=O)NC3CC3)c2)cc1 | 0.89
COc1ccc2ncn(-c3cc(O[C@H](C)c4ccccc4Cl)c(C(N)=O)s3)c2c1 | -1.13
Cc1ccc(NC(=O)c2ccoc2)cc1-c1ccc(C(=O)NCC2CC2)cc1 | -0.62

* * *

test system: Proto-oncogene tyrosine-protein kinase receptor Ret (Homo sapiens), P07949 [V804L]; conditions: at 0.1 µM
Sequence (P07949 whole entry V804L): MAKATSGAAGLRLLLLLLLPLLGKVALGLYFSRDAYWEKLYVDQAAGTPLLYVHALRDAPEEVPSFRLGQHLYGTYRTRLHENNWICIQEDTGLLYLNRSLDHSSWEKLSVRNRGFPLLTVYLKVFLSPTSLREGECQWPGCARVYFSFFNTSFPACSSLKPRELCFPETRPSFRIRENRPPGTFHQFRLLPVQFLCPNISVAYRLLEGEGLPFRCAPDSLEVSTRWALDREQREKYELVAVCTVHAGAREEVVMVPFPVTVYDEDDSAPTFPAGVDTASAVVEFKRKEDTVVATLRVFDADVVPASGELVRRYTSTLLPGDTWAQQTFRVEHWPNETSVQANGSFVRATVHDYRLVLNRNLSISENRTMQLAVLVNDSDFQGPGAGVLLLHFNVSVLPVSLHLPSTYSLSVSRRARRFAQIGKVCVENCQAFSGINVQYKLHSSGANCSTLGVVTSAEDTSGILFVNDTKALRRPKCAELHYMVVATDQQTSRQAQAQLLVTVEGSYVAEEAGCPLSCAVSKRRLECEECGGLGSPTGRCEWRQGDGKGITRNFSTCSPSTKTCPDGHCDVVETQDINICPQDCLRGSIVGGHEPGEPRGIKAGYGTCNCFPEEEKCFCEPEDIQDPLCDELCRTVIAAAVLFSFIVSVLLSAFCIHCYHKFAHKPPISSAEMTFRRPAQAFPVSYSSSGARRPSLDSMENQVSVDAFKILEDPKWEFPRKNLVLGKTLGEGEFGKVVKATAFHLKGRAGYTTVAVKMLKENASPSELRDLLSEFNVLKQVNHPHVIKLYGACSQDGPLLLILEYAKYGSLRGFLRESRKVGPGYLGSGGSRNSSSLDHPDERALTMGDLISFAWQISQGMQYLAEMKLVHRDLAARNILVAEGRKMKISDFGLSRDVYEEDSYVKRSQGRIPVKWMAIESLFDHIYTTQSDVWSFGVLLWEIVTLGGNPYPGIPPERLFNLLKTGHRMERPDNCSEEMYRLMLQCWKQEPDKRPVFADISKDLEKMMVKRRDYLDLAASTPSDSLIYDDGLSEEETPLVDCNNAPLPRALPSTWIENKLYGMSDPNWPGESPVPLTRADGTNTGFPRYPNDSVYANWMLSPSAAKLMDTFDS

smiles repr | inhibition (%)
COc1ccc(-c2ccc3c(NC(=O)C4CC4)n[nH]c3n2)cc1 | 6.95
CCc1nccc2c1nc(-c1nonc1N)n2CC | 4.16
FC(F)(F)c1cccc(Nc2nccc(-c3cnn4nc(-c5ccccc5)ccc34)n2)c1 | 3.76
CN(c1ccc(NC(=O)Nc2c(Cl)cccc2Cl)cc1)c1ccnc(Nc2cccc(CS(C)(=O)=O)c2)n1 | 13.2
N#Cc1ccc(Oc2nccc(-c3c(-c4ccc(F)cc4)ncn3C3CCNCC3)n2)cc1 | 3.48
